Each recorded value in this set is attributed to PubChem BioAssay AID488969.

# Target Desc: Metabotropic glutamate receptor 8 (Rattus norvegicus)
# Assay Name: mGluR8 Gi/Go-coupled signaling modulation – cell-based, rat, thallium flux, HTS, primary screen (AID 488969)
# Measurement Conditions: HEK293 rat mGluR8, GIRK (G protein-gated inwardly rectifying potassium channel) thallium flux, FluoZin2; at 10 µM; stronger effect = higher value; submaximal glutamate (EC20) added with thallium
Over roughly 110,000 compounds, “z-score” has its median near -0.1; the highest 2% begin near 2. Many of the other results were omitted from the sample, so the highest values are more common in it than they were.
z-score of 0.2 or higher: condition met. Under 0.2: condition not met.

# Compound, Category Label
rows = [
    ("Cc1cc(C(=O)N=Nc2c(O)n(C(C)C)c3ccccc23)n[nH]1", "condition met"),
    ("CC1CCCCN1S(=O)(=O)c1ccc(NC(=O)c2cccs2)cc1 (stereo unspecified)", "condition not met"),
    ("CC(C)n1c(O)c(N=Nc2ccc(Cl)nn2)c2ccccc21", "condition met"),
    ("OCCCN=c1cc(-c2ccccc2)oc2ccc(Cl)cc12", "condition met"),
    ("Cc1ccc(NC(=O)c2ccc3nc[nH]c3c2)cc1C", "condition met"),
    ("COc1ccccc1NS(=O)(=O)c1ccc2oc(SC3CCOC3=O)nc2c1 (stereo unspecified)", "condition not met"),
    ("CCOc1ccc(CCNC(=O)CN2CCN(Cc3ccccc3F)C2=O)cc1OCC", "condition met"),
    ("CCc1ccc2nc(N3C(=O)c4oc5ccccc5c(=O)c4C3c3ccc(OC)c(OC)c3)sc2c1 (stereo unspecified)", "condition not met"),
    ("CC(C)n1c(O)c(N=Nc2ccccn2)c2ccccc21", "condition met"),
    ("OCCN=c1cc(-c2ccccc2)oc2ccc(Cl)cc12", "condition met"),
    ("OCCCCCN=c1cc(-c2ccccc2)oc2ccc(Cl)cc12", "condition not met"),
]
